Let's go through some Ki measurements on Alpha-2C adrenergic receptor (Rattus norvegicus) together.
Sequence (P22086 whole entry): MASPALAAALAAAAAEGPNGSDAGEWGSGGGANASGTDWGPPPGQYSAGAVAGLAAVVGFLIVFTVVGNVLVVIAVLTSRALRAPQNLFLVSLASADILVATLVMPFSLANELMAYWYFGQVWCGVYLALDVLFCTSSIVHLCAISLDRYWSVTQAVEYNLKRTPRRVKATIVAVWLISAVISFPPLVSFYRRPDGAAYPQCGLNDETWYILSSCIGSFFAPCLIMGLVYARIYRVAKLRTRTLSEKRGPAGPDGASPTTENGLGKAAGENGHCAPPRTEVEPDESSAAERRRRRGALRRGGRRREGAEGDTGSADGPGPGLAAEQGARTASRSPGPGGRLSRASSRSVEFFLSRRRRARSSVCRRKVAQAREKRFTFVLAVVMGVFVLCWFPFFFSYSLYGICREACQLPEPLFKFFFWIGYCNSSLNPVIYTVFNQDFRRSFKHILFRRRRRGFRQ
readoutName: Ki (µM)

- compound: "CN(C)C[C@@H]1C2CCC(CC2)[C@@H]1c1ccc(Cl)c(Cl)c1 [CAS_62373-97-1]"
  readoutName: "Ki"
  valueComparator: ">"
  quantitativeReadout: 10
- compound: "CN(C)CCCN1c2ccccc2CCc2ccccc21"
  readoutName: "Ki"
  valueComparator: "="
  quantitativeReadout: 4.6
- compound: "CNCCC(Oc1ccccc1C)c1ccccc1 (centres undefined)"
  readoutName: "Ki"
  valueComparator: ">"
  quantitativeReadout: 10
- compound: "CN1Cc2c(N)cccc2[C@H](c2ccccc2)C1"
  readoutName: "Ki"
  valueComparator: "="
  quantitativeReadout: 6.1

====

# experimentalSystem: Histamine H1 receptor (Rattus norvegicus, UniProt P31390)
# Sequence (P31390 whole entry): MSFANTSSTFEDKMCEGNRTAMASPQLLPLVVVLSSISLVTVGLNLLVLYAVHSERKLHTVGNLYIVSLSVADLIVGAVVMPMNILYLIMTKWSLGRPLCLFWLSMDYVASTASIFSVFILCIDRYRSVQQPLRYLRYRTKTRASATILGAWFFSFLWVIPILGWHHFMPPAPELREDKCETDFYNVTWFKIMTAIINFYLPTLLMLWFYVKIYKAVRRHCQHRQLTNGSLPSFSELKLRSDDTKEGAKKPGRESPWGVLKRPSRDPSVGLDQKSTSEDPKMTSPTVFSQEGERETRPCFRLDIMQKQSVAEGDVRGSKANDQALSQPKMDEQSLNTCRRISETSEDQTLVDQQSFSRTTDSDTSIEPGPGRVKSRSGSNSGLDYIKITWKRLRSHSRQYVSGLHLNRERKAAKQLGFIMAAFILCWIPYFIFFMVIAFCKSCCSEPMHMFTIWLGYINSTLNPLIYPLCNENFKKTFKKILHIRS
pKi: −log10 of the molar value.
The following compounds are listed with their measured pKi values.

- smilesCode: "CN(C)C[C@@H]1C2CCC(CC2)[C@@H]1c1ccc(Cl)c(Cl)c1"
  pKi: 5.70
- smilesCode: "CN(C)CCCN1c2ccccc2CCc2ccccc21"
  pKi: 7.51
